Test system: Escherichia coli
Assay: Binding affinity to Escherichia coli MRE600 ribosome assessed as protection against N1-cyclohexyl-N3-(2-morpholino)ethylcarbodiimide p-toluenesulfonate-induced modifications at nucleotide U2506 in peptidyl transferase center of 23S rRNA at 50 uM by chemical footprinting relative to control
assay.readout: Activity

• C=C[C@]1(C)C[C@@H](OC(=O)Cn2cc([C@]3(O)[C@H](O)[C@@H](CO)O[C@H]3n3ccc(=O)[nH]c3=O)nn2)[C@]2(C)[C@H](C)CC[C@]3(CCC(=O)[C@@H]32)[C@@H](C)[C@@H]1O = 0.18
• C=C[C@]1(C)C[C@@H](OC(=O)Cn2cc(Cn3cnc4c(N)ncnc43)nn2)[C@]2(C)[C@H](C)CC[C@]3(CCC(=O)[C@@H]32)[C@@H](C)[C@@H]1O = 0.19
• C=C[C@]1(C)C[C@@H](OC(=O)Cn2cc(COC[C@H]3O[C@@H](n4cc(C)c(=O)[nH]c4=O)C[C@@H]3O)nn2)[C@]2(C)[C@H](C)CC[C@]3(CCC(=O)[C@@H]32)[C@@H](C)[C@@H]1O = 0.19
• C=C[C@]1(C)C[C@@H](OC(=O)Cn2cc(CCn3cc(C)c(=O)[nH]c3=O)nn2)[C@]2(C)[C@H](C)CC[C@]3(CCC(=O)[C@@H]32)[C@@H](C)[C@@H]1O = 0.1
• C=C[C@]1(C)C[C@@H](OC(=O)CSCCN(CC)CC)[C@]2(C)[C@H](C)CC[C@]3(CCC(=O)[C@H]32)[C@@H](C)[C@@H]1O = 0.05
• C=C[C@]1(C)C[C@@H](OC(=O)Cn2cc(C[C@@H](O)[C@@H]3O[C@H](n4cc(C)c(=O)[nH]c4=O)C[C@H]3O)nn2)[C@]2(C)[C@H](C)CC[C@]3(CCC(=O)[C@@H]32)[C@@H](C)[C@@H]1O = 0.09
• C=C[C@]1(C)C[C@@H](OC(=O)Cn2cc(CCCn3cc(C)c(=O)[nH]c3=O)nn2)[C@]2(C)[C@H](C)CC[C@]3(CCC(=O)[C@@H]32)[C@@H](C)[C@@H]1O = 0.08

====

Tested on: Escherichia coli
Experiment: Binding affinity to Escherichia coli MRE600 ribosome assessed as protection against N1-cyclohexyl-N3-(2-morpholino)ethylcarbodiimide p-toluenesulfonate-induced modifications at nucleotide U2585 in peptidyl transferase center of 23S rRNA at 5 uM by chemical footprinting relative to control
Cut-off 0.5 on Activity, inclusive. At or above means t; below means f.

* C=C[C@]1(C)C[C@@H](OC(=O)Cn2cc(Cn3cc(C)c(=O)[nH]c3=O)nn2)[C@]2(C)[C@H](C)CC[C@]3(CCC(=O)[C@@H]32)[C@@H](C)[C@@H]1O | t
* C=C[C@]1(C)C[C@@H](OC(=O)Cn2cc(CCc3ccccc3)nn2)[C@]2(C)[C@H](C)CC[C@]3(CCC(=O)[C@@H]32)[C@@H](C)[C@@H]1O | t
* C=C[C@]1(C)C[C@@H](OC(=O)Cn2cc(CCCc3ccccc3)nn2)[C@]2(C)[C@H](C)CC[C@]3(CCC(=O)[C@@H]32)[C@@H](C)[C@@H]1O | f
* C=C[C@]1(C)C[C@@H](OC(=O)CSCCN(CC)CC)[C@]2(C)[C@H](C)CC[C@]3(CCC(=O)[C@H]32)[C@@H](C)[C@@H]1O | t

====

Test system: Escherichia coli
Assay: Binding affinity to Escherichia coli MRE600 ribosome assessed as protection against N1-cyclohexyl-N3-(2-morpholino)ethylcarbodiimide p-toluenesulfonate-induced modifications at nucleotide U2585 in peptidyl transferase center of 23S rRNA at 50 uM by chemical footprinting relative to control
Cut-off 0.4 on Activity, inclusive. At or above means criterion met; below means criterion not met.

• C=C[C@]1(C)C[C@@H](OC(=O)CO)[C@]2(C)[C@H](C)CC[C@]3(CCC(=O)[C@@H]32)[C@@H](C)[C@@H]1O = criterion met
• C=C[C@]1(C)C[C@@H](OC(=O)Cn2cc(Cn3cnc4c(N)ncnc43)nn2)[C@]2(C)[C@H](C)CC[C@]3(CCC(=O)[C@@H]32)[C@@H](C)[C@@H]1O = criterion not met
• C=C[C@]1(C)C[C@@H](OC(=O)CSCCN(CC)CC)[C@]2(C)[C@H](C)CC[C@]3(CCC(=O)[C@H]32)[C@@H](C)[C@@H]1O = criterion met
• C=C[C@]1(C)C[C@@H](OC(=O)Cn2cc(Cn3ccc(N)nc3=O)nn2)[C@]2(C)[C@H](C)CC[C@]3(CCC(=O)[C@@H]32)[C@@H](C)[C@@H]1O = criterion not met
• C=C[C@]1(C)C[C@@H](OC(=O)Cn2cc([C@@H](O)[C@@H]3O[C@H](n4cc(C)c(=O)[nH]c4=O)C[C@H]3O)nn2)[C@]2(C)[C@H](C)CC[C@]3(CCC(=O)[C@@H]32)[C@@H](C)[C@@H]1O (mixture of isomers) = criterion not met
• C=C[C@]1(C)C[C@@H](OC(=O)Cn2cc(Cc3ccccc3)nn2)[C@]2(C)[C@H](C)CC[C@]3(CCC(=O)[C@@H]32)[C@@H](C)[C@@H]1O = criterion not met
• C=C[C@]1(C)C[C@@H](OC(=O)Cn2cc(CCCn3cc(C)c(=O)[nH]c3=O)nn2)[C@]2(C)[C@H](C)CC[C@]3(CCC(=O)[C@@H]32)[C@@H](C)[C@@H]1O = criterion not met
• C=C[C@]1(C)C[C@@H](OC(=O)Cn2cc(CCc3ccccc3)nn2)[C@]2(C)[C@H](C)CC[C@]3(CCC(=O)[C@@H]32)[C@@H](C)[C@@H]1O = criterion not met
• C=C[C@]1(C)C[C@@H](OC(=O)Cn2cc(CCn3cnc4c(N)ncnc43)nn2)[C@]2(C)[C@H](C)CC[C@]3(CCC(=O)[C@@H]32)[C@@H](C)[C@@H]1O = criterion not met

====

Entries and their Activity values follow.
System: Escherichia coli
Test: Binding affinity to Escherichia coli MRE600 ribosome assessed as protection against N1-cyclohexyl-N3-(2-morpholino)ethylcarbodiimide p-toluenesulfonate-induced modifications at nucleotide U2585 in peptidyl transferase center of 23S rRNA at 5 uM by chemical footprinting relative to control
assay.readout: Activity

• C=C[C@]1(C)C[C@@H](OC(=O)Cn2cc(COC[C@H]3O[C@@H](n4cc(C)c(=O)[nH]c4=O)C[C@@H]3O)nn2)[C@]2(C)[C@H](C)CC[C@]3(CCC(=O)[C@@H]32)[C@@H](C)[C@@H]1O = 0.93
• C=C[C@]1(C)C[C@@H](OC(=O)Cn2cc(CCCn3cc(C)c(=O)[nH]c3=O)nn2)[C@]2(C)[C@H](C)CC[C@]3(CCC(=O)[C@@H]32)[C@@H](C)[C@@H]1O = 0.46
• C=C[C@]1(C)C[C@@H](OC(=O)Cn2cc(CCn3cc(C)c(=O)[nH]c3=O)nn2)[C@]2(C)[C@H](C)CC[C@]3(CCC(=O)[C@@H]32)[C@@H](C)[C@@H]1O = 0.57
• C=C[C@]1(C)C[C@@H](OC(=O)Cn2cc([C@]3(O)[C@@H](CO)O[C@@H](n4ccc(=O)[nH]c4=O)[C@@H]3O)nn2)[C@]2(C)[C@H](C)CC[C@]3(CCC(=O)[C@@H]32)[C@@H](C)[C@@H]1O = 0.45
• C=C[C@]1(C)C[C@@H](OC(=O)Cn2cc(CCCn3cnc4c(N)ncnc43)nn2)[C@]2(C)[C@H](C)CC[C@]3(CCC(=O)[C@@H]32)[C@@H](C)[C@@H]1O = 0.33

====

Test system: Escherichia coli
Assay: Binding affinity to Escherichia coli MRE600 ribosome assessed as protection against N1-cyclohexyl-N3-(2-morpholino)ethylcarbodiimide p-toluenesulfonate-induced modifications at nucleotide U2585 in peptidyl transferase center of 23S rRNA at 5 uM by chemical footprinting relative to control
assay.readout: Activity

• C=C[C@]1(C)C[C@@H](OC(=O)Cn2cc(CO[C@@H]3[C@H](O)[C@@H](CO)O[C@H]3n3ccc(=O)[nH]c3=O)nn2)[C@]2(C)[C@H](C)CC[C@]3(CCC(=O)[C@@H]32)[C@@H](C)[C@@H]1O = 0.72
• C=C[C@]1(C)C[C@@H](OC(=O)Cn2cc(CO[C@@H]3C[C@@H](n4cc(C)c(=O)[nH]c4=O)O[C@H]3CO)nn2)[C@]2(C)[C@H](C)CC[C@]3(CCC(=O)[C@@H]32)[C@@H](C)[C@@H]1O = 0.73
• C=C[C@]1(C)C[C@@H](OC(=O)Cn2cc(Cn3ccc(N)nc3=O)nn2)[C@]2(C)[C@H](C)CC[C@]3(CCC(=O)[C@@H]32)[C@@H](C)[C@@H]1O = 0.69
• C=C[C@]1(C)C[C@@H](OC(=O)CO)[C@]2(C)[C@H](C)CC[C@]3(CCC(=O)[C@@H]32)[C@@H](C)[C@@H]1O = 0.99
• C=C[C@]1(C)C[C@@H](OC(=O)Cn2cc(Cn3cnc4c(N)ncnc43)nn2)[C@]2(C)[C@H](C)CC[C@]3(CCC(=O)[C@@H]32)[C@@H](C)[C@@H]1O = 0.73
• C=C[C@]1(C)C[C@@H](OC(=O)Cn2cc(C[C@@H](O)[C@@H]3O[C@H](n4cc(C)c(=O)[nH]c4=O)C[C@H]3O)nn2)[C@]2(C)[C@H](C)CC[C@]3(CCC(=O)[C@@H]32)[C@@H](C)[C@@H]1O = 0.59
• C=C[C@]1(C)C[C@@H](OC(=O)Cn2cc(Cc3ccccc3)nn2)[C@]2(C)[C@H](C)CC[C@]3(CCC(=O)[C@@H]32)[C@@H](C)[C@@H]1O = 0.54
• C=C[C@]1(C)C[C@@H](OC(=O)Cn2cc(C[C@H](O)[C@@H]3O[C@H](n4cc(C)c(=O)[nH]c4=O)C[C@H]3O)nn2)[C@]2(C)[C@H](C)CC[C@]3(CCC(=O)[C@@H]32)[C@@H](C)[C@@H]1O = 0.69
• C=C[C@]1(C)C[C@@H](OC(=O)Cn2cc(CCCn3ccc(N)nc3=O)nn2)[C@]2(C)[C@H](C)CC[C@]3(CCC(=O)[C@@H]32)[C@@H](C)[C@@H]1O = 0.56
• C=C[C@]1(C)C[C@@H](OC(=O)Cn2cc([C@]3(O)[C@H](O)[C@@H](CO)O[C@H]3n3ccc(=O)[nH]c3=O)nn2)[C@]2(C)[C@H](C)CC[C@]3(CCC(=O)[C@@H]32)[C@@H](C)[C@@H]1O = 0.74
• C=C[C@]1(C)C[C@@H](OC(=O)Cn2cc(CCn3cnc4c(N)ncnc43)nn2)[C@]2(C)[C@H](C)CC[C@]3(CCC(=O)[C@@H]32)[C@@H](C)[C@@H]1O = 0.4

Hey, just so you know, these numbers are from ChEMBL document CHEMBL1156624.
